assay: NCI Yeast Anticancer Drug Screen. Data for the rad50 strain (AID 155);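 also: 0% = growth of vehicle-only cultures of the same strain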; conditions: S. cerevisiae rad50 strain growth inhibition; at 1.2 µM; stronger effect = higher value
About 79,000 compounds went through this panel and 15% of them were active in at least one assay; those are over-represented in the sample as a whole.
# growth inhibition per record follows
Your answer should be a plain number; it is taken to be in %.

Here is how some molecules turned out for growth inhibition.
INSERT INTO measurements (molecule, value_units, val) VALUES
  ('CCOc1ccc(N)c(S)c1', '%', 1),
  ('CCO/C=C1\SC(=S)N(c2ccc(OCC)cc2)C1=O', '%', -17),
  ('O=C(Cc1ccccc1)NN1C(=O)C(Cl)C1c1cc(Br)cc(Br)c1O (stereo unspecified)', '%', 2),
  ('CC(=O)/C=C/c1cccc([N+](=O)[O-])c1', '%', 0),
  ('CC(C)OC(=O)NNc1cc(Cl)ccc1Cl', '%', -3),
  ('O=C(CN(c1ccccc1)c1ccccc1)n1nnc2ccccc21', '%', -9);

Note: attention shifts to another entry.
Challenge: Read the entry Cc1cccc2c(Cl)c3cccc(C)c3nc12 and write its reported growth inhibition.
Response given: 1
